System: rat skeletal myoblast L6-cells
method_description: Cytotoxicity against L6 cells
Format: cell-based
test_context: cytotoxicity; read-out: IC50 L6 Cells
Some molecules, each annotated with its measured pIC50.
The quantity pIC50 is defined as the negative base-10 logarithm of the molar concentration.

> print(dat)
                                item.smiles                     measured.on  measurement.name  readout.value
1  N=C(N)c1ccc(NC(=O)CCCCCCCCC(=O)Nc2ccc(C(=N)N)cc2)cc1  rat skeletal myoblast L6-cells             pIC50           4.10

`N=C(N)c1ccc(NC(=O)CCCCCCC(=O)Nc2ccc(C(=N)N)cc2)cc1` has a reported pIC50 of 4.42

====

Test system: P. falciparum K1 (chloroquine-resistant)
method_description: In vitro anti-plasmodial activity, K1
Format: cell-based, Plasmodium falciparum
test_context: Plasmodium falciparum, K1; Table S1; from IC50 of Table 1; read-out: pIC50 P. falcip K1 (converted)
Some compounds, each annotated with its measured IC50.
Numeric answer only, unit nM assumed.

// worked examples, IC50 included
> print(dat)
                                   compound  measurement.name  readout.unit  readout.value
1  N#Cc1ccc(NC(=O)CCCC(=O)Nc2ccc(C#N)cc2)cc1              IC50            nM          44800
2  N=C(N)c1ccc(OCCCCCOc2ccc(C(=N)N)cc2)cc1 [Pentamidine, pentamidine, reference compound]              IC50            nM            180
3  N=C(N)c1ccc(NC(=O)CCCCC(=O)Nc2ccc(C(=N)N)cc2)cc1              IC50            nM             18
4  N=C(N)c1ccc(NC(=O)CCCC(=O)Nc2ccc(C(=N)N)cc2)cc1              IC50            nM              2

Query compound follows.
`NC(=NO)c1ccc(NC(=O)CCCC(=O)Nc2ccc(C(N)=NO)cc2)cc1` has a reported IC50 of 3160

====

System: T. b. brucei Lab 110 EATRO (pentamidine-sensitive)
method_description: In vitro antitrypanosomal activity, T.b. brucei Lab 110 EATRO
Format: cell-based, Trypanosoma brucei brucei
test_context: Trypanosoma brucei; Table S1; from IC50 of Table 1; read-out: pIC50 T.b. brucei (converted)
Threshold 0.003 µM. IC50 below it: Met. IC50 at it or above: Not met.

Take a look at these entries with their results.
> print(dat)
                                   molecule                               measured.on  class.assignment
1  NC(=NO)c1ccc(NC(=O)CCCC(=O)Nc2ccc(C(N)=NO)cc2)cc1 [Compound 4]  T. b. brucei Lab 110 EATRO (pentamidine-sensitive)           Not met
2  N=C(N)c1ccc(NC(=O)CCCC(=O)Nc2ccc(C(=N)N)cc2)cc1 [Compound 5]  T. b. brucei Lab 110 EATRO (pentamidine-sensitive)           Not met
3  NC(=O)c1ccc(NC(=O)CCCCC(=O)Nc2ccc(C(N)=O)cc2)cc1 [Compound 8]  T. b. brucei Lab 110 EATRO (pentamidine-sensitive)           Not met
4  N=C(N)c1ccc(OCCCCCOc2ccc(C(=N)N)cc2)cc1 [Pentamidine, pentamidine, reference compound]  T. b. brucei Lab 110 EATRO (pentamidine-sensitive)               Met

Turning to the following molecule.
Is it true that IC50 reported for N#Cc1ccc(NC(=O)CCCC(=O)Nc2ccc(C#N)cc2)cc1 [Compound 3] is less than 0.003 µM?
Not met
